The entries below come with measured IC50 values attached.
tested-system: UniProtKB A0A0S1S6H9
Sequence (A0A0S1S6H9 entry or part of it): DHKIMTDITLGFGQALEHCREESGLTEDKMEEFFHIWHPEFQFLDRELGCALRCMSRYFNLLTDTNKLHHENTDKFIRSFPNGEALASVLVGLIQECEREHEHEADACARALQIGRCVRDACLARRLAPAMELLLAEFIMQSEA
test-name: Fluorescence competitive binding assay (1-NPN displacement) with recombinant MvitGOBP1
A number alone suffices; assume µM.

Consider the following illustrative entries.
compound	measurement
O=Cc1ccccc1O [Compound 7, 2-hydroxybenzaldehyde]	20.8
CC(=O)c1ccc(C(C)=O)cc1	30.5
O=Cc1ccccc1	22.4

Please look at the following compound next.
Query string: May I ask what IC50 has been recorded for CCc1ccc(C(C)=O)cc1 ?
Result string: 22.9

###

tested-system: MvitGOBP2 (Maruca vitrata)
Sequence (A0A088MJX9 entry or part of it): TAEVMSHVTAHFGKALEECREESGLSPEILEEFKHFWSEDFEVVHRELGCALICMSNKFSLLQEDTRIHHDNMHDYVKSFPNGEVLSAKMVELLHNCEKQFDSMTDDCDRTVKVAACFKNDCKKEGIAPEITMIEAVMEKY
test-name: Fluorescence competitive binding assay (1-NPN displacement) with recombinant MvitGOBP2
conditions: dissociation constant calculated from IC50; 1-NPN competition; read-out: MvitGOBP2 Ki
assay-readout: Ki (µM)
The reply should contain only the number, in µM.

Some solved entries appear below for comparison.
compound	tested-system	measurement
CC(=O)c1ccccc1 [Compound 6, Acetophenone]	MvitGOBP2 (Maruca vitrata)	26.5
CCc1ccc(C=O)cc1 [Compound 8, 4-ethylbenzaldehyde]	MvitGOBP2 (Maruca vitrata)	33.1
CC(C=O)Cc1ccccc1 (stereo not shown) [Compound 11, 2-methyl-3-phenylpropanal]	MvitGOBP2 (Maruca vitrata)	3.81
C=C(C)[C@H]1CC=C(C)CC1 [Compound 2, Limonene]	MvitGOBP2 (Maruca vitrata)	29.2
CCCCOC(=O)CCC [Compound 1, Butanoic acid butyl ester]	MvitGOBP2 (Maruca vitrata)	29.7

Would you kindly look at the next entry?
Query string: Look up Ki: CCc1ccc(CC)cc1 [Compound 4, 1,4-diethylbenzene]
Result string: 27.1
